Exercise: state measured cytotoxicity at 10 µM for each of the compounds provided.
measurement-protocol: Toxicity liver stage against HepG2, at 10uM
Format: cell-based
Set-up: test concentration 10 uM, cell line HepG2-A16-CD81EGFP
condition-summary: human, HepG2-A16-CD81EGFP cells; read-out: INHIBITION
Answers are plain numbers, in %.

CCOC(=O)c1cnn(-c2cc(Oc3ccccc3C)ncn2)c1N
15.8
Cc1cc(NC(=O)NCC(c2ccsc2)N(C)C)n(C)n1 (stereo unspecified)
-5.33
COCc1ncn(Cc2nc(-c3ccc(OC)c(OC)c3)oc2C)n1
-4.77

List cytotoxicity at 10 µM for every entry below, keeping the order given.
1. O=S(=O)(Cc1cccc(F)c1)NCC(O)Cc1ccccc1 (stereo unspecified)
2. Cc1ccsc1CN(C)c1cc(N2CCCC2CO)ncn1 (stereo unspecified)
3. c1csc(N2CCN(Cc3nnnn3C3CC3)CC2)n1

[9.01, 11.7, 8.96]

Data provenance: ChEMBL document CHEMBL4513216
